- STUDY_SYSTEM: human CLDN18.2 (human)
- ASSAY: cell-based or functional assay
PROPERTY_MEASURED: ADCC EC50, Jurkat-CD16a v158-NFAT-luciferase effector cells, KATOIII target cells (nM)
Numeric answer only, unit nM assumed.

query: // ADCC EC50, Jurkat-CD16a v158-NFAT-luciferase effector cells, KATOIII target cells lookup, key: humanized antibody hz28G3-1.3 (antibody, human IgG1, kappa, V domains shown) VH: QVQLVQSGAEVKKPGASVKVSCKTSGYSFTDYLMLWVRQAHGQSLEWMGNINPYYGRTTYALKFKGRVTMTVDRSTSTVYMELSSLRSEDTAVYYCARDGYSLRNAMDYWGQGTLVTVSS VL: DIVMTQSPDSLAVSLGERATINCKSSQSLFNSGNQKNYLAWYQQKPGQPPKLLIYGASTRESGVPDRFSGSGSGTDFTLTISSLQAEDVAVYYCQNAHSYPYTFGQGTKVEIKR
result: 0.217
